Tested on: intracellular HBV DNA
Assay: Real-time PCR for intracellular HBV DNA in HepAD38 cells
Type: cell-based
Details: Hepatitis B virus, HePAD38, 65 h, 65 hours treatment
measurementName: IC50 (nM)
# output: bare number, implied unit nM

// known answers, use as guide
- O=C(Nc1ccc(F)c(Cl)c1)N(Cc1cc(C(F)(F)F)[nH]n1)C12CC(C1)C2 [Example 137]: 370
- COC12CC(N(Cc3cc(C(F)(F)F)[nH]n3)C(=O)Nc3ccc(F)c(C(F)F)c3)(C1)C2 [Example 213]: 16
- COc1ncc(N(Cc2cc(C(F)(F)F)[nH]n2)C(=O)Nc2cc(C(F)F)c(F)cn2)cn1 [Example 192]: 59

// lookup IC50 for COc1ncc(N(Cc2cc(C(F)(F)F)[nH]n2)C(=O)Nc2cnc(F)c(F)c2)cn1 [Example 171]
280
